Target: T1, recombinant human CEACAM5 (human, UniProt P06731 35-685, limits assumed)
T1 construct: Immobilised by amine coupling on a CM5 chip
T1 sequence (looked up): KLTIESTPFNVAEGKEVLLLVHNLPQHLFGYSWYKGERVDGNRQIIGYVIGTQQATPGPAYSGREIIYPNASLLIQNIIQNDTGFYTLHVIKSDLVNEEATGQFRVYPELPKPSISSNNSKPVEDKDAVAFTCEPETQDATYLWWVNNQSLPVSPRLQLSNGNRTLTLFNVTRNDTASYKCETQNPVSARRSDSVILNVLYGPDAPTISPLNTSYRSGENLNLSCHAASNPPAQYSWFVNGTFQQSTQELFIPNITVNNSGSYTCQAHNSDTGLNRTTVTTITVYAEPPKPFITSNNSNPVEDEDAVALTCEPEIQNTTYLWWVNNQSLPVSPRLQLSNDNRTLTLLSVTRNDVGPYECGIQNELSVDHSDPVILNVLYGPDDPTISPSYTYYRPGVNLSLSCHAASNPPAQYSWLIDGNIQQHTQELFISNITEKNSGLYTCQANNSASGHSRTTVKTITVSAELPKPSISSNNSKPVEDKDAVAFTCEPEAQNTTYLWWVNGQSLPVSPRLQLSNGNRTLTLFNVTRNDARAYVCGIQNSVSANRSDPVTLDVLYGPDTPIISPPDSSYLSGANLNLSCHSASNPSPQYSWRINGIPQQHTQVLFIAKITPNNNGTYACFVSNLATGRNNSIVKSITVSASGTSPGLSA
Test: SPR Biacore 8K+, CEACAM5 amine-coupled on CM5, ISVD analyte, 1:1 fit
value-kind: koff (s⁻¹)
Give the quantity in s⁻¹, number only.

{"binder": "T028501818 (VHH, K43E vs precursor T028501817; also called A0315024B02(M43E, Q64K, K83R)) VHH: EVQLVESGGGVVQPGGSLRLSCAASGHTFSEYALGWFRQAPGEEREFVAAINWGGGWTYYADSVKGRFTISRDNAKNTLYLQMNSLRPEDTALYYCAASSDYAGGNPTGYPYWGQGTLVTVSS", "unit-abbrev": "s⁻¹", "observed-value": 0.00226}
{"binder": "T028501803 (VHH, K75H vs precursor T028501789; also called A0315007E07(K75H)) VHH: EVQLVESGGGVVQPGGSLRLSCAASGLTFSTYTMGWFRQAPGKEREFVAAIIWSGSNTYYADSVKGRFTISRDNAHNTVYLQMNSLRPEDTALYYCAAQHFGPIGLTTRGYHYWGQGTLVTVSS", "unit-abbrev": "s⁻¹", "observed-value": 0.00084}

Input line: Record request: koff value, item T028501827 (VHH, K64A vs precursor T028501817; also called A0315024B02(M43K, Q64A, K83R)) VHH: EVQLVESGGGVVQPGGSLRLSCAASGHTFSEYALGWFRQAPGKEREFVAAINWGGGWTYYADSVAGRFTISRDNAKNTLYLQMNSLRPEDTALYYCAASSDYAGGNPTGYPYWGQGTLVTVSS
Output line: 0.00235

Input line: Please look up its koff: T028501830 (VHH, K75R vs precursor T028501817; also called A0315024B02(M43K, Q64K, K75R, K83R)) VHH: EVQLVESGGGVVQPGGSLRLSCAASGHTFSEYALGWFRQAPGKEREFVAAINWGGGWTYYADSVKGRFTISRDNARNTLYLQMNSLRPEDTALYYCAASSDYAGGNPTGYPYWGQGTLVTVSS
Output line: 0.00207
